System: Pseudomonas aeruginosa (ATCC 27853)
Procedure text: Sensitization to erythromycin, Pseudomonas aeruginosa (ATCC 27853)
Type: cell-based
Measurement parameters: Table 11; Pseudomonas aeruginosa ATCC 27853; erythromycin (by order) at 0.5, 1.0 or 3.0 μg/mL
Experimental endpoint: concentration required to inhibit bacterial growth with antibiotic (µg/mL)
Answers are plain numbers, in µg/mL.

For the 5 compounds below, give their concentration required to inhibit bacterial growth with antibiotic values.
1. CCCCCCCCNCCC[C@@H](C)[C@H]1CC[C@H]2[C@@H]3[C@H](OCCCN)C[C@@H]4C[C@H](OCCCN)CC[C@]4(C)[C@H]3C[C@H](OCCCN)[C@]12C
2. CCCOCCC[C@@H](C)[C@H]1CC[C@H]2[C@@H]3[C@H](OCCCN)C[C@@H]4C[C@H](OCCCN)CC[C@]4(C)[C@H]3C[C@H](OCCCN)[C@]12C
3. C[C@H](CCCN(C)Cc1ccccc1)[C@H]1CC[C@H]2[C@@H]3[C@H](OCCCN)C[C@@H]4C[C@H](OCCCN)CC[C@]4(C)[C@H]3C[C@H](OCCCN)[C@]12C
4. C[C@H](CCCN(C)Cc1ccccc1)[C@H]1CC[C@H]2[C@@H]3[C@H](OCCN)C[C@@H]4C[C@H](OCCN)CC[C@]4(C)[C@H]3C[C@H](OCCN)[C@]12C
5. CCCCCCCCNCCC[C@@H](C)[C@H]1CC[C@H]2[C@@H]3[C@H](OCCCNC(=N)N)C[C@@H]4C[C@H](OCCCNC(=N)N)CC[C@]4(C)[C@H]3C[C@H](OCCCNC(=N)N)[C@]12C

A)
0.35
1.0
2.4
6.6
0.70
